Biological target: T1, human integrin β3(P685-F727) TM peptide incorporating β3(C687S) (human, UniProt P05106 711-753, C687S)
T1 chain (looked up): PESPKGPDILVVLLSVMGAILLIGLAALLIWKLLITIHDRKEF
Experiment: ITC
readout: dH (kcal/mol)
Numbers only, in kcal/mol.

Observe how each entry below is paired with its result.
So for ALEERAIPIWWVLVGVLGGLLLLTILVLAMHKVGFFKRNRP (peptide, UniProt P08514 989-1029, looked up) [integrin αIIb(A958-P998) TM peptide W988H] , the logged dH turned out to be -16.4

Record ALEERAIPIWWVLVGVLGGLLLLTILVLAMVKVGFFKRNRP (peptide, UniProt P08514 989-1029, looked up) [integrin αIIb(A958-P998) TM peptide W988V] , field dH: -13.7

Record ALEERAIPIHVVLVGVLGGLLLLTILVLAMWKVGFFKRNRP (peptide, UniProt P08514 989-1029, looked up) [integrin αIIb(A958-P998) TM peptide W967H/W968V] . Reported dH: -14.9

The measured dH associated with ALEERAIPIWWVLVGVLGGLLLLTILVLAMAKVGFFKRNRP (peptide, UniProt P08514 989-1029, looked up) [integrin αIIb(A958-P998) TM peptide W988A] reads -17.3

Quick request: dH for each listed item, please.
1. ALEERAIPIFVVLVGVLGGLLLLTILVLAMWKVGFFKRNRP (peptide, UniProt P08514 989-1029, looked up) [integrin αIIb(A958-P998) TM peptide W967F/W968V]
2. ALEERAIPIWVVLVGVLGGLLLLTILVLAMWKVGFFKRNRP (peptide, UniProt P08514 989-1029, looked up) [integrin αIIb(A958-P998) TM peptide W968V]
3. ALEERAIPIWWVLVGVLGGLLLLTILVLAMYKVGFFKRNRP (peptide, UniProt P08514 989-1029, looked up) [integrin αIIb(A958-P998) TM peptide W988Y]

Response given:
1: -15.7; 2: -14.3; 3: -19.2

For each of the binders below, note its dH.
1. ALEERAIPIAVVLVGVLGGLLLLTILVLAMWKVGFFKRNRP (peptide, UniProt P08514 989-1029, looked up) [integrin αIIb(A958-P998) TM peptide W967A/W968V]
2. ALEERAIPIYVVLVGVLGGLLLLTILVLAMWKVGFFKRNRP (peptide, UniProt P08514 989-1029, looked up) [integrin αIIb(A958-P998) TM peptide W967Y/W968V]
3. ALEERAIPIWWVLVGVLGGLLLLTILVLAMFKVGFFKRNRP (peptide, UniProt P08514 989-1029, looked up) [integrin αIIb(A958-P998) TM peptide W988F]
4. ALEERAIPIVVVLVGVLGGLLLLTILVLAMWKVGFFKRNRP (peptide, UniProt P08514 989-1029, looked up) [integrin αIIb(A958-P998) TM peptide W967V/W968V]

Response given:
[-18.4, -14, -16.4, -17.8]

Measured values drawn from paper PMC11025564 for this set.
